tested on: HCT-15
quantity.measured: GI50

COc1cccc2c1C(=O)OC2c1cccc2ccccc12 (centres undefined)    > 100 µM
COc1ccc(/C=N/Nc2nc3ccccc3c(=O)n2-c2ccccc2)c(OCc2ccccc2)c1    > 100 µM
CN(C)CCNC(=O)c1cccc2c1C(=O)c1ccccc1C2=O    30.7 µM
CO[C@H]1[C@@H](O)[C@@H](C)O[C@@H](O[C@H]2CC[C@@]3(C)[C@H](CC[C@@H]4[C@@H]3CC[C@]3(C)[C@@H](C5=CC(=O)OC5)[C@@H](OC(C)=O)C[C@]43O)C2)[C@@H]1O [NERITALOSIDE]    0.0973 µM
CC(=O)Nc1ccc(Cc2ccc3nc(O)cc(C)c3c2)cc1    > 100 µM
CCn1c(=O)c2c(=O)[nH][nH]c2c2ccccc21    > 100 µM
O=S(=O)(O)c1cc2ccc1/C=C\c1ccc(cc1S(=O)(=O)O)/N=N\c1ccc(c(S(=O)(=O)O)c1)/C=C\c1ccc(cc1S(=O)(=O)O)/N=N\2    > 100 µM
CC1=COC(C)(C=C(C#N)C#N)CC1 (centres undefined)    > 10 µM
COC(=O)C1=C(C)NC(C)=C(C(=O)OC)C1c1ccc(N=O)cc1    9.53 µM
CC(C)NC(=O)OCc1c(COC(=O)NC(C)C)c(-c2cc[n+](COC(=O)C3CCCCC3)cc2)n2c1CCC2    > 100 µM
C/C(CC(O)(C(F)(F)Cl)C(F)(F)Cl)=N\Nc1ccccc1    32.1 µM
CCCCCCCCCCCC[C@@H](O)[C@H]1CCC([C@H](O)CCCCC(=O)CCCCCCCC2=C[C@H](C)OC2=O)O1 (some centres undefined)    17.9 µM
CC1CNc2ccccc2N=C1NN (centres undefined)    > 100 µM
CSc1n/c(=N\c2ccccc2)sn1-c1ccccc1    13.8 µM
COC(=O)c1ccccc1NC(=O)C(=O)CC(=O)c1ccccc1NC1=CC(=O)C(=O)c2ccccc21    5.65 µM
C/N=C1\S/C(=N\c2ccc(N(C)C)cc2)N1C    30.5 µM
CC1(C)OC(=C(C#N)C#N)C(C#N)=C1/C=C/c1ccncc1    2.03 µM
COc1ccc(C2C3COc4ccccc4C3=NN2c2ccccc2)cc1 (centres undefined)    > 100 µM
CC(C)C1CC[C@H](C)C[C@@H]1OC(=O)C(C(=O)O[C@H]1C[C@@H](C)CCC1C(C)C)C(O)[C@@H]1OC(C)(C)O[C@H]1C1COC(C)(C)O1 (some centres undefined)    20.7 µM
